experiment description: Kidney drug level after subcutaneous dose in mouse
Type: in vivo
measurement setup: mouse, in vivo, sc, 17.2 mg/kg
Where a SMILES comes first, the peptide text is derived from it. Bridges are numbered along the chain shown (N, C = ends). [ ]: non-standard residue; d: D form. The star is where a group is joined. X14 = NC[C@@H](CC(=O)*)c1cccc(-c2ccsc2)c1; X2 = NC[C@@H](CC(=O)*)c1cccc(-c2ccccc2)c1; X6 = CC(C)Cc1cccc([C@@H](CN)CC(=O)*)c1; X8 = NC[C@@H](CC(=O)*)Cc1cccc(Cl)c1; X10 = Cc1cccc([C@@H](CN)CC(=O)*)c1; X5 = NC[C@H](CC(=O)*)c1ccc(Cl)cc1; Dab = NCC[C@H](N)C(=O)O; Abu = CC[C@H](N)C(=O)O; Dap = NC[C@H](N)C(=O)O
Note to self: values exactly at 400000 ng/g are satisfied. So tissue level at time at 4 h at or above 400000 ng/g is satisfied, below is not satisfied.

Would you please look over these solved cases?
compound	category
CC(C)C[C@@H]1NC(=O)[C@@H](Cc2ccccc2)NC(=O)[C@H](CCN)NC(=O)[C@@H](NC(=O)[C@H](CN)NC(=O)[C@@H](NC(=O)C[C@@H](CN)c2ccc(Cl)cc2)[C@@H](C)O)CCNC(=O)[C@H]([C@@H](C)O)NC(=O)[C@H](CCN)NC(=O)[C@H](CCN)NC1=O [Example 2] (X5-T[Dap][Dab][Dab][dF]L[Dab][Dab]T; lactam 3-C)	satisfied
CC(C)C[C@@H]1NC(=O)[C@@H](Cc2ccccc2)NC(=O)[C@H](CCN)NC(=O)[C@@H](NC(=O)[C@H](CN)NC(=O)[C@@H](NC(=O)C[C@H](CN)Cc2cccc(Cl)c2)[C@@H](C)O)CCNC(=O)[C@H]([C@@H](C)O)NC(=O)[C@H](CCN)NC(=O)[C@H](CCN)NC1=O [Example 11] (X8-T[Dap][Dab][Dab][dF]L[Dab][Dab]T; lactam 3-C)	not satisfied
Cc1cccc([C@@H](CN)CC(=O)N[C@H](C(=O)N[C@@H](CN)C(=O)N[C@H]2CCNC(=O)[C@H]([C@@H](C)O)NC(=O)[C@H](CCN)NC(=O)[C@H](CCN)NC(=O)[C@H](CC(C)C)NC(=O)[C@@H](Cc3ccccc3)NC(=O)[C@H](CCN)NC2=O)[C@@H](C)O)c1 [Example 21] (X10-T[Dap][Dab][Dab][dF]L[Dab][Dab]T; lactam 3-C)	not satisfied
CC[C@@H]1NC(=O)[C@@H](CC(C)C)NC(=O)[C@H](CCN)NC(=O)[C@@H](NC(=O)[C@H](CN)NC(=O)[C@@H](NC(=O)C[C@H](CN)c2cccc(CC(C)C)c2)[C@@H](C)O)CCNC(=O)[C@H]([C@@H](C)O)NC(=O)[C@H](CCN)NC(=O)[C@H](CCN)NC1=O [Example 26] (X6-T[Dap][Dab][Dab][dL][Abu][Dab][Dab]T; lactam 3-C)	not satisfied
CC[C@@H]1NC(=O)[C@@H](CC(C)C)NC(=O)[C@H](CCN)NC(=O)[C@@H](NC(=O)[C@H](CN)NC(=O)[C@@H](NC(=O)C[C@H](CN)c2cccc(-c3ccccc3)c2)[C@@H](C)O)CCNC(=O)[C@H]([C@@H](C)O)NC(=O)[C@H](CCN)NC(=O)[C@H](CCN)NC1=O [Example 24] (X2-T[Dap][Dab][Dab][dL][Abu][Dab][Dab]T; lactam 3-C)	not satisfied

// switching to the query compound
## Input Is the recorded value of tissue level at time at 4 h equal to or greater than 400000 ng/g for this compound? CC[C@@H]1NC(=O)[C@@H](CC(C)C)NC(=O)[C@H](CCN)NC(=O)[C@@H](NC(=O)[C@H](CN)NC(=O)[C@@H](NC(=O)C[C@H](CN)c2cccc(-c3ccsc3)c2)[C@@H](C)O)CCNC(=O)[C@H]([C@@H](C)O)NC(=O)[C@H](CCN)NC(=O)[C@H](CCN)NC1=O [Example 30] (X14-T[Dap][Dab][Dab][dL][Abu][Dab][Dab]T; lactam 3-C)
## Output not satisfied
